# target.under.test: Muscarinic acetylcholine receptor M1 (Rattus norvegicus) (UniProt P08482)
# Sequence (P08482 whole entry, looked up): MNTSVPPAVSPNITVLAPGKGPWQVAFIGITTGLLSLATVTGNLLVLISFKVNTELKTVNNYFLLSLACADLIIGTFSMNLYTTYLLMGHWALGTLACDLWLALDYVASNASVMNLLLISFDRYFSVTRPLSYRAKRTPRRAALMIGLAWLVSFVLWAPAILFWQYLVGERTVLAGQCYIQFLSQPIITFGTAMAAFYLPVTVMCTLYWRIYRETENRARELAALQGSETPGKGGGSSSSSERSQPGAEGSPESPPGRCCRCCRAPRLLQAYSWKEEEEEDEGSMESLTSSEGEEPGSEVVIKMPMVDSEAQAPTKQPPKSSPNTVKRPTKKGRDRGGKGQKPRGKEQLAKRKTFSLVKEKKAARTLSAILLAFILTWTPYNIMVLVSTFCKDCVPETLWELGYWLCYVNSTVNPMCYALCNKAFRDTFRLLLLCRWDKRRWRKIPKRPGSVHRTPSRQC
# run.description: qHTS Assay for Antagonists of Acetylcholine Muscarinic M1 Receptor: Kinetic Measurement of Intracellular Calcium Response (AID 943); note: potency is the fitted concentration of half-maximal effect; nearly all actives have a fitted effect of over 75% in size
# measurement.conditions: M1-expressing cells, kinetic intracellular calcium fluorescence; series mostly up to 35.3 µM
# Procedure: NIH Molecular Libraries Screening Centers Network [MLSCN] NIH Chemical Genomics Center [NCGC] Acetylcholine muscarinic M1 receptor is a G-protein coupled receptor (GPCR) coupling to the Gq G protein. […] The increase of intracellular calcium can be measured by the fluorescent calcium dyes, Fluo-3 and Fluo-4, using a fluorescence kinetic plate reader. […] #- read the assay plate 6 times at 1 Hz for basal signal […] #- continuously read the assay plate for 4 min at 1 Hz […]
Inconclusive results are not listed. Activity calls are given as the source filed them. Calls come from the whole dose curve; as a rule, active = well fitted inhibition curve with a large enough effect; inconclusive = small, poorly fitted or top-dose-only effect; inactive = no such curve, though single readings can be large or run the other way.
Record form. Attribute: Potency. Fill in for each entry.

Provide one value: measured Potency of "NC(N)=Nc1ccc2[nH]c3c(c2c1)C[C@]1(O)[C@@H]2Cc4ccc(O)c5c4[C@]1(CCN2CC1CC1)[C@H]3O5"
3.55 µM (active)

Assign Potency to the following record: "CN1[C@@H](CC(=O)c2ccccc2)CCC[C@@H]1C[C@@H](O)c1ccccc1"
5.62 µM (active)

Please list Potency recorded for the molecule CCCCCCCCCCCCCC(=O)O[C@H]1[C@@H](C)[C@@]2(O)[C@@H](C=C(CO)C[C@]3(O)C(=O)C(C)=C[C@@H]23)C2C(C)(C)[C@]21OC(C)=O (some centres undefined)
0.02 µM (active)
